tested-on: ΔF508-CFTR (Homo sapiens, UniProt P13569, DEL508-508)
Construct: host or cells: CFBE41o-, doxycycline-inducible
Sequence (P13569 with tags, fused parts or gaps DEL508-508): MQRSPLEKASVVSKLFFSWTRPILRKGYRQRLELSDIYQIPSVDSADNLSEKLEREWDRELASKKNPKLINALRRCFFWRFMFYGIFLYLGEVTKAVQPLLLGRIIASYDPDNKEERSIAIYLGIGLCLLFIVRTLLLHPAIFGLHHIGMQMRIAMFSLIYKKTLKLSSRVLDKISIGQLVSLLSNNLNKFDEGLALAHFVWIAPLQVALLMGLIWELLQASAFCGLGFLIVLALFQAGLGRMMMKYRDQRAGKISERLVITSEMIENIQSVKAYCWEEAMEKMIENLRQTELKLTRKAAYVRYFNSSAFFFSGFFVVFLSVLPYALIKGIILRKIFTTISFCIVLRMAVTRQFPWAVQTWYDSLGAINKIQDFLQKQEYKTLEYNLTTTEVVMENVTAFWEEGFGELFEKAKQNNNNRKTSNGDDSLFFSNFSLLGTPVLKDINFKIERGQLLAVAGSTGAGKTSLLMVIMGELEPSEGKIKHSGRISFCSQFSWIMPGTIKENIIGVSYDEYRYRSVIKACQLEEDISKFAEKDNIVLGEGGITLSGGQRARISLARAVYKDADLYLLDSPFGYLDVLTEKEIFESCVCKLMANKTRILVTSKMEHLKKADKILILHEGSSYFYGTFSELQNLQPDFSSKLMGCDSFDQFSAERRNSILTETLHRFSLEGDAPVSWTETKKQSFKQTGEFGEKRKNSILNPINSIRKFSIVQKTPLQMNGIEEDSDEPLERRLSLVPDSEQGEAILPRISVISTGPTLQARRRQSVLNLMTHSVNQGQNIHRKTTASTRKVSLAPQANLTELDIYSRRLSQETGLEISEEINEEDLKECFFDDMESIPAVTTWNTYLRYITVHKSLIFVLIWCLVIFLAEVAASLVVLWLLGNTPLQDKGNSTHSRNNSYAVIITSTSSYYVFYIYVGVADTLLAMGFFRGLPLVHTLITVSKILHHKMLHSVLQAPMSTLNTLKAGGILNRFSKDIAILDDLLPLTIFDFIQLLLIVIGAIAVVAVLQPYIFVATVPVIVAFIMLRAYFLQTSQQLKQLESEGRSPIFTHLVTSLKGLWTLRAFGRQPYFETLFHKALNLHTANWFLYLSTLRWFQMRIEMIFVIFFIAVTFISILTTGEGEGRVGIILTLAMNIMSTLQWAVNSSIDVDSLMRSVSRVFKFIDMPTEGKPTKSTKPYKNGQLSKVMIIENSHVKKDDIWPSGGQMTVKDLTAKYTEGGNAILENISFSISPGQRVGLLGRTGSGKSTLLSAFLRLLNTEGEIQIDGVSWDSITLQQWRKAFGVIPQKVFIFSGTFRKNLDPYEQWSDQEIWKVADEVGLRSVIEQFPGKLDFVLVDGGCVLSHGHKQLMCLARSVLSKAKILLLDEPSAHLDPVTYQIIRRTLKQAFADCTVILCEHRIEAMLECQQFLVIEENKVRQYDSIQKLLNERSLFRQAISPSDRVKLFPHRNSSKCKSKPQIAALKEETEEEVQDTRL
protocol-text: CFTR cell surface levels using HRP-tagged ΔF508-CFTR expressing CFBE cells, in the presence of a co-corrector
Format: cell-based
condition-label: HRP-tagged ΔF508-CFTR expressing CFBE cells, in the presence of 3 μM co-corrector; read-out: EC50
pEC50: −log10 of the molar value.

{"molecule": "CC(C)c1nn(C2CCCCC2)c2nc(C(=O)O)cc(-c3ccc(N4CCC(C#N)CC4)nc3)c12 [compound 180]", "pEC50": 6.16}
{"molecule": "CC(C)c1nn(-c2cccc(N3CCOCC3)c2)c2nc(C(=O)O)cc(-c3ccc(N4CCC(C#N)CC4)cc3)c12 [compound 206]", "pEC50": 6.61}
{"molecule": "Cc1nn(-c2ccccc2)c2nc(C(=O)O)cc(OCC3(F)CCCN(C4COC4)C3)c12 (stereo not shown) [compound 381]", "pEC50": 5.78}
{"molecule": "O=C(O)c1cc(N2CCC3(CC2)OCCO3)c2c(C3CCC3)nn(-c3ccccc3)c2n1 [compound 700]", "pEC50": 6.89}
{"molecule": "CN1CCN(C2CCN(c3cc(C(=O)O)nc4c3c(C3CCC3)nn4-c3ccccc3)CC2)CC1 [compound 757]", "pEC50": 6.40}
{"molecule": "N#CC1CCN(c2ccc(-c3cc(C(=O)O)nc4c3c(C3CCC3)nn4C3CCCCC3)cn2)CC1 [compound 220]", "pEC50": 6.43}
{"molecule": "Cc1cccc(-n2nc(C(C)C)c3c(N4CC5(CCOCC5)C4)cc(C(=O)O)nc32)c1 [compound 258]", "pEC50": 6.04}

###

tested-on: ΔF508-CFTR (Homo sapiens, UniProt P13569, DEL508-508)
Construct: host or cells: CFBE41o-, doxycycline-inducible
protocol-text: CFTR cell surface levels using HRP-tagged ΔF508-CFTR expressing CFBE cells, intrinsic corrector capacity
Assay type: cell-based
condition-label: HRP-tagged ΔF508-CFTR CFBE41o- cells, compounds alone (intrinsic corrector capacity), 20 hours at 33° C.; read-out: EC50
reported-property: EC50 (nM)

{"compound": "CC(C)(CO)c1nn(-c2ccccc2)c2nc(C(=O)O)cc(-c3ccc(N4CCOCC4)cc3)c12", "unit-text": "nM", "readout-relation": "=", "recorded-value": 3340}
{"compound": "Cc1nn(-c2ccccc2)c2nc(C(=O)O)cc(N3CCC(NS(C)(=O)=O)CC3)c12", "unit-text": "nM", "readout-relation": "=", "recorded-value": 7500}
{"compound": "CC(C)c1nn([C@@H]2CCC[C@H](O)C2)c2nc(C(=O)O)cc(-c3ccc(N4CCOCC4)cc3)c12 (racemic)", "unit-text": "nM", "readout-relation": ">", "recorded-value": 10000}
{"compound": "Cc1cccc(-n2nc(C)c3c(-c4ccc(N5CCOCC5)cc4)cc(C(=O)O)nc32)c1", "unit-text": "nM", "readout-relation": "=", "recorded-value": 997}
{"compound": "Cc1nn(-c2cccc(N(C)C)c2)c2nc(C(=O)O)cc(-c3cnc(N4CCOCC4)nc3)c12", "unit-text": "nM", "readout-relation": "=", "recorded-value": 1040}
{"compound": "Cc1cccc(-n2nc(C(C)C)c3c(-c4ccc(N5CCC(C#N)CC5)nc4)cc(C(=O)O)nc32)c1", "unit-text": "nM", "readout-relation": "=", "recorded-value": 809}
{"compound": "Cc1nn(-c2ccccc2)c2nc(C(=O)O)cc(N3CC4(CCCOC4)C3)c12", "unit-text": "nM", "readout-relation": "=", "recorded-value": 2510}
{"compound": "Cc1cccc(-n2nc(C(C)C)c3c(N4CCCCC4)cc(C(=O)O)nc32)c1", "unit-text": "nM", "readout-relation": "=", "recorded-value": 992}
